Recorded growth at 10 µM by entry
# Test system: OVCAR-4
# Assay Explanation: Antiproliferative activity against human OVCAR4 cells assessed as cell growth at 10 uM
# Type: functional
# Study Conditions: read-out: Activity
Measured Parameter: growth at 10 µM

* O=C1c2ccccc2C(=O)c2c1ccc1nc(-c3ccc4c(c3)OCO4)[nH]c21 | 101%
* CC1(C)Nc2ccc3c(c2N1)C(=O)c1ccccc1C3=O | 80.1%
* COc1cc(-c2nc3ccc4c(c3[nH]2)C(=O)c2ccccc2C4=O)ccc1O | 83%
* O=C1c2ccccc2C(=O)c2c1ccc1nc(-c3ccccc3)[nH]c21 | 73.4%
* O=C1c2ccccc2C(=O)c2c1ccc1nsnc21 | -94.4%
* O=C1c2ccccc2C(=O)c2c1ccc1nccnc21 | 94.2%
* CCc1nc2ccc3c(c2[nH]1)C(=O)c1ccccc1C3=O | 48.8%
* CN(C)c1ccc(-c2nc3ccc4c(c3[nH]2)C(=O)c2ccccc2C4=O)cc1 | 98.3%
* O=C1c2ccccc2C(=O)c2c1ccc1nc(-c3ccc(Br)cc3)[nH]c21 | 94.1%
* N#Cc1ccc(-c2nc3ccc4c(c3[nH]2)C(=O)c2ccccc2C4=O)cc1 | 101%
* Cc1ccc(-c2nc3ccc4c(c3[nH]2)C(=O)c2ccccc2C4=O)cc1 | 96.8%
